Please go through the items and note down their combination Emax.
Test system: FU97 (Gastric Carcinoma)
assay_protocol: combination Emax (second highest fraction inhibited in the dose matrix, 72 h); higher = more inhibition; extreme values may be limits of the assay
// return a plain number; no unit text

Data request: Quick one: combination Emax of CN(CCO)CC[C@H](CSc1ccccc1)Nc1ccc(S(=O)(=O)NC(=O)c2ccc(N3CCC([C@@H](O)c4ccccc4-c4ccc(Cl)cc4)CC3)cc2)cc1S(=O)(=O)C(F)(F)F [AZD4320] + C[C@@H](Nc1cc(F)cc(F)c1)c1cc(C(=O)N(C)C)cc2c(=O)cc(N3CCOCC3)oc12 [AZD8186] (first compound max 1 µM, 7x7, partner max 3 µM) ?
Data returned: 0.507

Data request: Quick one: combination Emax of C=CCn1c(=O)c2cnc(Nc3ccc(N4CCN(C)CC4)cc3)nc2n1-c1cccc(C(C)(C)O)n1 [AZD1775] + Nc1ccn([C@@H]2O[C@H](CO)[C@@H](O)C2(F)F)c(=O)n1 [Gemcitabine] (first compound max 1 µM, partner max 0.3 µM) ?
Data returned: 0.362

----------
Tested on: NCI-H64 (Small Cell Lung Carcinoma)
assay_protocol: combination Emax (second highest fraction inhibited in the dose matrix, 72 h); higher = more inhibition; extreme values may be limits of the assay
assay_metric: combination Emax
// return a plain number; no unit text

Data request: Quick one: combination Emax of CN(C)CCCOc1ccc(-c2ccc3ncc4c(c3c2)n(C2CCOCC2)c(=O)n4C)cn1 [AZD0156] + CCN(CCO)CCCOc1ccc2c(Nc3cc(CC(=O)Nc4cccc(F)c4)[nH]n3)ncnc2c1 [AZD2811] (first compound max 1 µM, 7x7, partner max 1 µM) ?
Data returned: 0.461

Data request: Quick one: combination Emax of COc1nnc2ccc(N3CCC(c4ccc(OCCN5CCN(C)C(=O)[C@H]5C)cc4)CC3)nn12 [AZD5153] + C[C@@H]1COCCN1C2=NC(=NC(=C2)C3(CC3)[S@](=N)(=O)C)C4=C5C=CNC5=NC=C4 [AZD6738] (first compound max 1 µM, 7x7, partner max 10 µM) ?
Data returned: 0.927

Data request: Quick one: combination Emax of N#Cc1cnc(Nc2cc(NC[C@H]3CNCCO3)c(C(F)(F)F)cn2)cn1 [SRA737] + Nc1ccn([C@@H]2O[C@H](CO)[C@@H](O)C2(F)F)c(=O)n1 [Gemcitabine] (first compound max 10 µM, 7x7, partner max 0.3 µM) ?
Data returned: 0.863

Data request: Quick one: combination Emax of CN(CCO)CC[C@H](CSc1ccccc1)Nc1ccc(S(=O)(=O)NC(=O)c2ccc(N3CCC([C@@H](O)c4ccccc4-c4ccc(Cl)cc4)CC3)cc2)cc1S(=O)(=O)C(F)(F)F [AZD4320] + CCN(CCO)CCCOc1ccc2c(Nc3cc(CC(=O)Nc4cccc(F)c4)[nH]n3)ncnc2c1 [AZD2811] (first compound max 1 µM, 7x7, partner max 1 µM) ?
Data returned: 1

----------
System: A549 (Lung Adenocarcinoma)
assay_protocol: combination Emax (second highest fraction inhibited in the dose matrix, 72 h); higher = more inhibition; extreme values may be limits of the assay
assay_metric: combination Emax
// return a plain number; no unit text

Data request: Quick one: combination Emax of CN(CCO)CC[C@H](CSc1ccccc1)Nc1ccc(S(=O)(=O)NC(=O)c2ccc(N3CCC([C@@H](O)c4ccccc4-c4ccc(Cl)cc4)CC3)cc2)cc1S(=O)(=O)C(F)(F)F [AZD4320] + CCN(CCO)CCCOc1ccc2c(Nc3cc(CC(=O)Nc4cccc(F)c4)[nH]n3)ncnc2c1 [AZD2811] (first compound max 1 µM, 7x7, partner max 1 µM) ?
Data returned: 0.446

Data request: Quick one: combination Emax of COc1nnc2ccc(N3CCC(c4ccc(OCCN5CCN(C)C(=O)[C@H]5C)cc4)CC3)nn12 [AZD5153] + CN(CC[C@H](CSC1=CC=CC=C1)NC2=C(C=C(C=C2)S(=O)(=O)NC(=O)C3=CC=C(C=C3)N4CCC(CC4)[C@H](C5=CC=CC=C5C6=CC=C(C=C6)Cl)O)S(=O)(=O)C(F)(F)F)CCO [AZD4320] (first compound max 1 µM, 7x7, partner max 1 µM) ?
Data returned: 0.735

Data request: Quick one: combination Emax of C[C@@H](c1ccc2nccn2c1)n1nnc2ncc(-c3cnn(C)c3)nc21 [Savolitinib] + CN(CC[C@H](CSC1=CC=CC=C1)NC2=C(C=C(C=C2)S(=O)(=O)NC(=O)C3=CC=C(C=C3)N4CCC(CC4)[C@H](C5=CC=CC=C5C6=CC=C(C=C6)Cl)O)S(=O)(=O)C(F)(F)F)CCO [AZD4320] (first compound max 1 µM, 7x7, partner max 1 µM) ?
Data returned: 0.165

Data request: Quick one: combination Emax of CC1(C)CCC(CN2CCN(c3ccc(C(=O)NS(=O)(=O)c4ccc(NCC5CCOCC5)c([N+](=O)[O-])c4)c(Oc4cnc5[nH]ccc5c4)c3)CC2)=C(c2ccc(Cl)cc2)C1 [Venetoclax] + Cn1cnc2c(F)c(Nc3ccc(Br)cc3Cl)c(C(=O)NOCCO)cc21 [Selumetinib] (first compound max 1 µM, 7x7, partner max 3 µM) ?
Data returned: 0.611

----------
System: SISO (Cervical Carcinoma)
assay_protocol: Bliss excess, mean over the matrix (fraction); higher = more synergy
Decide using Bliss excess: a value greater than or equal to -0.005 is MET, a smaller one is NOT MET.

Data request: For this molecule, is measured Bliss excess -0.005 or higher? CC1(C)CCC(CN2CCN(c3ccc(C(=O)NS(=O)(=O)c4ccc(NCC5CCOCC5)c([N+](=O)[O-])c4)c(Oc4cnc5[nH]ccc5c4)c3)CC2)=C(c2ccc(Cl)cc2)C1 [Venetoclax] + CN(C)CCCOc1ccc(-c2ccc3ncc4c(c3c2)n(C2CCOCC2)c(=O)n4C)cn1 [AZD0156] (first compound max 1 µM, 7x7, partner max 1 µM)
Data returned: MET

Data request: For this molecule, is measured Bliss excess -0.005 or higher? Cc1c2c(nn1C)CSCc1cc(n(C)n1)CSc1cc(c3ccccc3c1)OCCCc1c(C(=O)O)n(C)c3c-2c(Cl)ccc13 [AZD5991] + CN(C)CCCOc1ccc(-c2ccc3ncc4c(c3c2)n(C2CCOCC2)c(=O)n4C)cn1 [AZD0156] (first compound max 1 µM, 7x7, partner max 1 µM)
Data returned: MET

Data request: For this molecule, is measured Bliss excess -0.005 or higher? COc1nnc2ccc(N3CCC(c4ccc(OCCN5CCN(C)C(=O)[C@H]5C)cc4)CC3)nn12 [AZD5153] + CC1(C)CCC(CN2CCN(c3ccc(C(=O)NS(=O)(=O)c4ccc(NCC5CCOCC5)c([N+](=O)[O-])c4)c(Oc4cnc5[nH]ccc5c4)c3)CC2)=C(c2ccc(Cl)cc2)C1 [Venetoclax] (first compound max 1 µM, 7x7, partner max 1 µM)
Data returned: NOT MET

Data request: For this molecule, is measured Bliss excess -0.005 or higher? NC1(C(=O)N[C@@H](CCO)c2ccc(Cl)cc2)CCN(c2ncnc3[nH]ccc23)CC1 [Capivasertib] + CC(C)n1c(=O)n(C)c2cnc3cc(F)c(-c4ccc(OCCCN5CCCCC5)nc4)cc3c21 [AZD1390] (first compound max 10 µM, 7x7, partner max 0.3 µM)
Data returned: NOT MET

Data request: For this molecule, is measured Bliss excess -0.005 or higher? COc1nnc2ccc(N3CCC(c4ccc(OCCN5CCN(C)C(=O)[C@H]5C)cc4)CC3)nn12 [AZD5153] + CN(CC[C@H](CSC1=CC=CC=C1)NC2=C(C=C(C=C2)S(=O)(=O)NC(=O)C3=CC=C(C=C3)N4CCC(CC4)[C@H](C5=CC=CC=C5C6=CC=C(C=C6)Cl)O)S(=O)(=O)C(F)(F)F)CCO [AZD4320] (first compound max 1 µM, 7x7, partner max 1 µM)
Data returned: NOT MET

Data request: For this molecule, is measured Bliss excess -0.005 or higher? Cn1cnc2c(F)c(Nc3ccc(Br)cc3Cl)c(C(=O)NOCCO)cc21 [Selumetinib] + C[C@@H]1COCCN1C2=NC(=NC(=C2)C3(CC3)[S@](=N)(=O)C)C4=C5C=CNC5=NC=C4 [AZD6738] (first compound max 10 µM, 7x7, partner max 10 µM)
Data returned: NOT MET

----------
Please go through the items and note down their Bliss excess.
Test system: CCK-81 (Colorectal Carcinoma)
assay_protocol: Bliss excess, mean over the matrix (fraction); higher = more synergy
// return a plain number; no unit text

Data request: Quick one: Bliss excess of COc1cc2ncnc(Nc3ccc(F)c(Cl)c3)c2cc1OCCCN1CCOCC1 [Gefitinib] + CC(C)n1c(=O)n(C)c2cnc3cc(F)c(-c4ccc(OCCCN5CCCCC5)nc4)cc3c21 [AZD1390] (first compound max 10 µM, 7x7, partner max 0.3 µM) ?
Data returned: -0.072

Data request: Quick one: Bliss excess of Cc1c2c(nn1C)CSCc1cc(n(C)n1)CSc1cc(c3ccccc3c1)OCCCc1c(C(=O)O)n(C)c3c-2c(Cl)ccc13 [AZD5991] + CC1(C)CCC(CN2CCN(c3ccc(C(=O)NS(=O)(=O)c4ccc(NCC5CCOCC5)c([N+](=O)[O-])c4)c(Oc4cnc5[nH]ccc5c4)c3)CC2)=C(c2ccc(Cl)cc2)C1 [Venetoclax] (first compound max 1 µM, 7x7, partner max 1 µM) ?
Data returned: 0.0362

Data request: Quick one: Bliss excess of CC(=O)Nc1cccc(-n2c(=O)n(C3CC3)c(=O)c3c(Nc4ccc(I)cc4F)n(C)c(=O)c(C)c32)c1 [Trametinib] + Cc1nc(-c2cn3c(n2)-c2ccc(-c4cnn(C(C)(C)C(N)=O)c4)cc2OCC3)n(C(C)C)n1 [Taselisib] (first compound max 1 µM, 7x7, partner max 10 µM) ?
Data returned: 0.209

Data request: Quick one: Bliss excess of Cc1cc2ncnn2cc1Nc1ncc2c(n1)n(C1CCOCC1)c(=O)n2C [AZD7648] + C=CCn1c(=O)c2cnc(Nc3ccc(N4CCN(C)CC4)cc3)nc2n1-c1cccc(C(C)(C)O)n1 [AZD1775] (first compound max 10 µM, partner max 1 µM) ?
Data returned: 0.0285
